Test system: Pseudomonas aeruginosa PAO1
Construct: PAO1 (attTn7::mini-Tn7T-Gm-lacIq-pLAC-MCS)
Experiment: microbe, parasite or virus in culture
Parameters: 2-fold serial broth dilution MIC (at least 90% growth inhibition)
Conditions: PAO1, read-out: MICs (mg/L) in strains: / PAO1
readout-name: MIC (mg/L)
# number only, unit mg/L dropped from output

[in] In one line, give reported MIC of the entry O=C(O)C1=C(CSc2nnnn2CS(=O)(=O)O)CS[C@@H]2[C@H](NC(=O)[C@H](O)c3ccccc3)C(=O)N12 [OU-666, cefonicid] .
[out] 62.5

[in] In one line, give reported MIC of the entry CO[C@@]1(NC(=O)C(C(=O)O)c2ccc(O)cc2)C(=O)N2C(C(=O)O)=C(CSc3nnnn3C)CO[C@@H]21 (stereo partly shown) [OU-672, moxalactam] .
[out] 62.5
